System: LOX IMVI melanoma
Experiment: NCI-60 one-dose screen, 48 h
Conditions: 10 µM unless noted
This is part of a sample that, as a whole, favours compounds with a hit. Of some 83,000 tested, about 20% had one in any assay. The source made the active and inactive calls. The calls were made as follows: active = growth percent below 10; inactive = the rest.
Hi! Could you answer with just one of these? Y = active, N = inactive

Example entries begin here.
>>> qualitative_label("S=C(c1ccc2c(c1)OCO2)N1CCN(c2ccccc2Cl)CC1")
"N"
>>> qualitative_label("Cc1cc(NCc2cc(Nc3ccnc4cc(Cl)ccc34)ccc2F)nc(N2CCOCC2)n1")
"Y"
>>> qualitative_label("O=c1cc(-c2ccc(Cl)cc2)[nH]c2ccccc12")
"N"
>>> qualitative_label("CCN1C(=O)N(CC)C2C1NN=c1s/c(=C\\c3cccs3)c(=O)n12 (stereo not given)")
"N"
>>> qualitative_label("C=C(C)[C@@H]1CC[C@]2(C(=O)NC3CCCCC3)CC[C@]3(C)[C@H](CC[C@@H]4[C@@]5(C)CCCNC(C)(C)[C@@H]5CC[C@]43C)[C@@H]12")
"Y"
>>> qualitative_label("Clc1ccc(-c2c3ccc(=[N+]4CCCCC4)cc-3oc3cc(N4CCCCC4)ccc23)cc1")
"Y"
>>> qualitative_label("O=C(Nc1ccc(-n2cc(-c3ccncc3)c(-c3ccc(Cl)c(O)c3)n2)cc1)N1CCOCC1")
"N"
>>> qualitative_label("CCCCCS(=O)(=O)Nc1ccc(C(=O)O)cc1")
"N"

Pending molecule:
Exam item: Write down the call the test reported for this molecule. Item: Nc1nc(N)c2c(n1)NC(c1ccccc1)C1CCc3ccccc3C1=N2 (stereo not given)
Marked response: N
